Description: Fujifilm Wako Pure Chemical The poorly soluble compound content in the recovered filtrate was measured by liquid chromatography specified below (Shimadzu (Kyoto), high performance liquid chromatograph Prominence). As the standard product of triamcinolone acetonide, a reagent from the Pharmaceutical and Medical Device Regulatory Science Society of Japan (Japan) was used. • 50 μL of sample solution and standard solution was measured by liquid chromatography under the following conditions. […]
assay endpoint: Solubility scale factor at 5° C. 30% PEG 4000/10% poloxamer 407

Kindly indicate its recorded Solubility scale factor at 5° C. 30% PEG 4000/10% poloxamer 407. Item: O=C(NC(Cc1cc(=O)[nH]c2ccccc12)C(=O)O)c1ccc(Cl)cc1 (stereo not drawn) [Rebamipide]
1.13

A: CC1(C)O[C@@H]2C[C@H]3[C@@H]4CCC5=CC(=O)C=C[C@]5(C)[C@H]4[C@@H](O)C[C@]3(C)[C@]2(C(=O)CO)O1 [Desonide]
B: Cc1cn(-c2cc(NC(=O)c3ccc(C)c(Nc4nccc(-c5cccnc5)n4)c3)cc(C(F)(F)F)c2)cn1
C: CCCc1nc2c(C)cc(-c3nc4ccccc4n3C)cc2n1Cc1ccc(-c2ccccc2C(=O)O)cc1
D: Cc1ccc(-c2cc(C(F)(F)F)nn2-c2ccc(S(N)(=O)=O)cc2)cc1
Sequence the entries by Solubility scale factor at 5° C. 30% PEG 4000/10% poloxamer 407, beginning with the highest number. Your answer should be the labels, listed in the requested order.
D, B, A, C
(D: 686.99, B: 144.99, A: 7.59, C: 2.03)

I: O=C1Nc2ccc(Cl)cc2[C@@](C#CC2CC2)(C(F)(F)F)O1
II: CNC(=O)c1cc(Oc2ccc(NC(=O)Nc3ccc(Cl)c(C(F)(F)F)c3)c(F)c2)ccn1
III: C[C@@H](O[C@H]1OCCN(Cc2n[nH]c(=O)[nH]2)[C@H]1c1ccc(F)cc1)c1cc(C(F)(F)F)cc(C(F)(F)F)c1 [Aprepitant]
Hey, can you sort those molecules up there by Solubility scale factor at 5° C. 30% PEG 4000/10% poloxamer 407, smallest first? Answer format: list of labels, ordered as asked.
I, II, III
(I: 14.23, II: 182.78, III: 1377.77)
